test system: methicillin-sensitive Staphylococcus aureus (MSSA); experiment: MIC, two-fold agar dilution (CLSI), clinical isolates; assay type: cell-based; conditions: strain MSSA 15-6
Here the recorded MIC (anti-bacterial activity) is given for each entry.
measurement.kind: MIC (anti-bacterial activity) (µg/mL)

INSERT INTO assay_data (compound, number) VALUES
  ('O=CN(O)C[C@@H](CC1CCCC1)C(=O)N1CC2(CC2)C[C@H]1C(=O)Nc1ccc(N2CCOCC2)cc1 [Example 25]', 0.25),
  ('Cc1csc(NC(=O)[C@@H]2CC3(CC3)CN2C(=O)[C@H](CC2CCCC2)CN(O)C=O)n1 [Example 33]', 0.06),
  ('O=CN(O)C[C@@H](CC1CCCC1)C(=O)N1CC2(CC2)C[C@H]1C(=O)Nc1ncco1 [Example 36]', 4),
  ('O=CN(O)C[C@@H](CC1CCCC1)C(=O)N1CC2(CC2)C[C@H]1C(=O)Nc1cnccn1 [Example 26]', 0.25),
  ('CCCC[C@H](CN(O)C=O)C(=O)N1CC2(CC2)C[C@H]1C(=O)Nc1nncs1 [Example 23]', 0.25),
  ('Cc1cnc(NC(=O)[C@@H]2CC3(CC3)CN2C(=O)[C@H](CC2CCCC2)CN(O)C=O)s1 [Example 29]', 0.125),
  ('CC(C)(C)c1cc(NC(=O)[C@@H]2CC3(CC3)CN2C(=O)[C@H](CC2CCCC2)CN(O)C=O)no1 [Example 38]', 0.125),
  ('O=CN(O)C[C@@H](CC1CCCC1)C(=O)N1CC2(CC2)C[C@H]1C(=O)Nc1ccc(F)cn1 [Example 28]', 0.125),
  ('CCCC[C@H](CN(O)C=O)C(=O)N1CC2(CC2)C[C@H]1c1nc2ccccc2n1CCN(C)C [Example 24]', 8),
  ('O=CN(O)C[C@@H](CC1CCCC1)C(=O)N1CC2(CC2)C[C@H]1C(=O)Nc1cc[nH]n1 [Example 31]', 2);
